As an illustration, consider measured pIC50 for compounds on His-tagged Parp-1 (Homo sapiens).
Sequence (P09874 whole entry): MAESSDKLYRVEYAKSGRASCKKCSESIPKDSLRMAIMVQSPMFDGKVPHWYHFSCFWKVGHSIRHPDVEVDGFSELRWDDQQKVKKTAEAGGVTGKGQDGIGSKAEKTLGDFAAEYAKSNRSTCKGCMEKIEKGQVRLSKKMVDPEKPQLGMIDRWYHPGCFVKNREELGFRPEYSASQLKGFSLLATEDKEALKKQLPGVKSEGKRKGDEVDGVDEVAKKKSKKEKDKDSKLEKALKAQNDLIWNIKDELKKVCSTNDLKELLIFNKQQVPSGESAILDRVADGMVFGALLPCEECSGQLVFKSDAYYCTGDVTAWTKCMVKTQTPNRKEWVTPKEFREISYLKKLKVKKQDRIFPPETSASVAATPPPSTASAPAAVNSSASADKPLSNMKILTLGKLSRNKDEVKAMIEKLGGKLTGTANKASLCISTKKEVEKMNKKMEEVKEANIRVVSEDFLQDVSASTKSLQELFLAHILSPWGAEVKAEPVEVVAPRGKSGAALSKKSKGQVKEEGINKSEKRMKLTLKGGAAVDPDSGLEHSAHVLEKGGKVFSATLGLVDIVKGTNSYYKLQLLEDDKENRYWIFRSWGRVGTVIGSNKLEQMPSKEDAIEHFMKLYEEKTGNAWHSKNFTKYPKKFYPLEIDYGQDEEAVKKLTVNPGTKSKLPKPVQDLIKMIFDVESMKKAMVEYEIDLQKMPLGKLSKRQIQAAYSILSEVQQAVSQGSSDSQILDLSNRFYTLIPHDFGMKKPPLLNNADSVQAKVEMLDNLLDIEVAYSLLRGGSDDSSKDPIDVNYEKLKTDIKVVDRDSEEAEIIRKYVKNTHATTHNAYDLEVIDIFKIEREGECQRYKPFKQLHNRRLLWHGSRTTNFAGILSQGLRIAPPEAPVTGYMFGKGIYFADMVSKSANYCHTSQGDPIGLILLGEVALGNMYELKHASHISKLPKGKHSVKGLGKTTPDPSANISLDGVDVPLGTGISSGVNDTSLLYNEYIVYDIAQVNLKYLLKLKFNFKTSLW
pIC50: −log10 of the molar value. Counter-ions that a name gives are not always drawn.

# count of solved cases: 3
Form field pIC50, entry `Cc1cc(F)cc2c(=O)[nH]c(-c3ccc(N4CCC(CO)CC4)cc3)nc12` : 5.52 to 6.52

Form field pIC50, entry Cc1cc(F)cc2c(=O)[nH]c(-c3ccc(C4CCNCC4)cc3)nc12 [Compound A33, hydrochloride] : 5.52 to 6.52

Form field pIC50, entry `CC(C)(O)c1ccc(-c2nc3c(Cl)cccc3c(=O)[nH]2)cc1` : 5.52 to 6.52

Next:
Form field pIC50, entry `CC(C)(C)c1ccc(-c2nc3ccc(F)cc3c(=O)[nH]2)cc1` : 4.30 to 5.52

Form field pIC50, entry `O=c1[nH]c(-c2ccc(C3(O)CCCC3)cc2)nc2ccc(F)cc12` : 5.52 to 6.52

Form field pIC50, entry `Cc1cc(F)cc2c(=O)[nH]c(-c3ccc(C(C)(C)O)cc3)nc12` : > 6.52

Form field pIC50, entry `COCCOC(C)(C)c1ccc(-c2nc3ccc(F)cc3c(=O)[nH]2)cc1` : 4.30 to 5.52

Form field pIC50, entry `Cc1cc(F)cc2c(=O)[nH]c(-c3ccc(N4CCC(O)CC4)cc3)nc12` : > 6.52

Form field pIC50, entry `CC(C)(O)c1ccc(-c2nc3ccc(F)c(F)c3c(=O)[nH]2)cc1` : 5.52 to 6.52

Form field pIC50, entry `Cc1cc(F)cc2c(=O)[nH]c(-c3ccc(N4CCS(=O)(=O)CC4)cc3)nc12` : 5.52 to 6.52

Form field pIC50, entry `CC(C)(OCCO)c1ccc(-c2nc3ccc(F)cc3c(=O)[nH]2)cc1` : 5.52 to 6.52

Form field pIC50, entry `CCC(O)(CC)c1ccc(-c2nc3ccc(F)cc3c(=O)[nH]2)cc1` : 5.52 to 6.52
